Measured IC50, inhibition of long chain DNA synthesis values are reported for all entries that follow.
- system: T1, HSV UL42 (processivity factor of HSV DNA polymerase) (herpes simplex virus (HSV), UniProt P10226 1-488)
- T1 sequence: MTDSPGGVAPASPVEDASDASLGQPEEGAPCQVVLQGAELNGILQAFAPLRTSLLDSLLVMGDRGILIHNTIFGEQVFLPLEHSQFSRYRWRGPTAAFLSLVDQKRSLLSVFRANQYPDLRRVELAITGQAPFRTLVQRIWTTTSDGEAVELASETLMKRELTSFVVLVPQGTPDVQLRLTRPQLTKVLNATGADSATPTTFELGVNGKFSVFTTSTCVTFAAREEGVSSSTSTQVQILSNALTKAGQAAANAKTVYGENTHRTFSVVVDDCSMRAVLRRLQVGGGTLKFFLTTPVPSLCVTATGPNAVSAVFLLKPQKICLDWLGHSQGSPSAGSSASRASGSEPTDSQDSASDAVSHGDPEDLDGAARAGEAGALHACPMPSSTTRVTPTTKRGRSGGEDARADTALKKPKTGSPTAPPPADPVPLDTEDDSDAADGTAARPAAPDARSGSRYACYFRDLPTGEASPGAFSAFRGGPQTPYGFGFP
- assay: cell-based or functional assay
Give the value in µM but do not write µM after it.

Example results:
// lookup IC50, inhibition of long chain DNA synthesis for ATAEETRRMLHRAFATLA [peptide E mutant D33A] 50

// lookup IC50, inhibition of long chain DNA synthesis for ATAEETRRMLHRAFDTLA [Peptide E (last 18 residues of HSV DNA polymerase, Pol residues 1218-1235)] 11

Others:
// lookup IC50, inhibition of long chain DNA synthesis for ATAEETARMLHRAFDTLA [peptide E mutant R25A] 40
